Assign log10 Ki to each entry below.
Note the log scale: values are log10 of Ki expressed in mM.

OB(O)c1ccccc1 [PHENYLBORONIC ACID] tested on Carbonic anhydrase 7 (Homo sapiens) gave log10 Ki: -2.08

O=S(=O)(O)O [SULFURIC ACID] tested on Carbonic anhydrase 7 (Homo sapiens) gave log10 Ki: 0.14

Br [BROMIDE] tested on Carbonic anhydrase 7 (Homo sapiens) gave log10 Ki: 0.03

I [IODIDE] tested on Carbonic anhydrase 7 (Homo sapiens) gave log10 Ki: -0.60

Cl [HYDROCHLORIC ACID] tested on Carbonic anhydrase 7 (Homo sapiens) gave log10 Ki: 0.26

O=S(O)O [SULFUROUS ACID] tested on Carbonic anhydrase 7 (Homo sapiens) gave log10 Ki: 0.86

F [FLUORIDE ION] tested on Carbonic anhydrase 7 (Homo sapiens) gave log10 Ki: 0.09

O=NO [NITROUS ACID] tested on Carbonic anhydrase 7 (Homo sapiens) gave log10 Ki: 0.25

N#CO [CYANATE] tested on Carbonic anhydrase 7 (Homo sapiens) gave log10 Ki: 1.18

S [HYDROGEN SULFIDE] tested on Carbonic anhydrase 7 (Homo sapiens) gave log10 Ki: 0.09

NS(=O)(=O)O [SULFAMATE] tested on Carbonic anhydrase 7 (Homo sapiens) gave log10 Ki: -2.02

N#CS [THIOCYANIC ACID] tested on Carbonic anhydrase 7 (Homo sapiens) gave log10 Ki: -0.77

O=[N+]([O-])O [NITRIC ACID] tested on Carbonic anhydrase 7 (Homo sapiens) gave log10 Ki: -0.72
